- Test system: Cercospora arachidicola
- method: Fungicidal activity, fungicide growth rate method, CA
- Format: cell-based
- measurement-conditions: Mycosphaerella arachidis, 50 μg/mL; read-out: fungicidal activity (growth inhibition rate), CA
Kindly state inhibition at 50 µg/mL for each of the entries shown.
Give bare numbers, in %.

Please review the entries below; each comes with its answer.
C=CC[C@@H]1C[C@]2(OC(C)=O)C[C@@H](OC(C)=O)O[C@@]23CC=CC[C@H]13; 14
C=CC[C@@H]1C[C@]2(O)C(C(=O)OCC)C(=O)O[C@@]23CC=CC[C@H]13 (some centres unmarked); 30
C=CC[C@@H]1C[C@]2(O)CCO[C@@]23C[C@@H]2O[C@@H]2C[C@H]13; 41
C=CC[C@@H]1C[C@]2(O)CC(O)O[C@@]23CC=CC[C@H]13 (some centres unmarked); 5
C=CC[C@@H]1C[C@@]2(OC(C)=O)C[C@@H](CC=C)[C@H]3C[C@@H]4O[C@@H]4C[C@@]32O1; 24

Quick one: give me inhibition at 50 µg/mL for each item below, same order please.
1. C=CC[C@@H]1C[C@]2(O)CCO[C@@]23CC[C@H](O)C[C@H]13
2. CO[C@@H]1C[C@]2(O)CC(=O)O[C@@]23CC=CC[C@H]13

1. 46
2. 24

---

reported-property: melting point

O=C1C[C@@]2(O)CC[C@H]3C[C@@H]4O[C@@H]4C[C@@]32O1; 119 to 120 °C

Hello, I would appreciate it if you could give melting point for each entry below.
1. C=CC[C@@H]1C[C@]2(O)CCO[C@@]23C[C@@H](Cl)[C@H](O)C[C@H]13
2. C=CC[C@@H]1C[C@@]2(OC(C)=O)C[C@@H](CC=C)[C@H]3C[C@@H]4O[C@@H]4C[C@@]32O1
3. C=CC[C@@H]1C[C@]2(O)CCO[C@@]23C[C@@H](O)[C@H](Cl)C[C@H]13

1: 134 to 136 °C; 2: 100 to 102 °C; 3: 143 to 144 °C

---

- Test system: Alternaria solani
- method: Fungicidal activity, fungicide growth rate method, AS
- Type: cell-based
- measurement-conditions: Alternaria solani, 50 μg/mL; read-out: fungicidal activity (growth inhibition rate), AS
Kindly return Condition met if reported inhibition at 50 µg/mL is no lower than 10%; return Condition not met if it is lower.

Completed entries (count: 7):
CCOC(=O)C(C(=O)OCC)C1CC(=O)[C@@]2(O)CC=CC[C@H]12 (some centres unmarked); Condition not met
C=CC[C@@H]1C[C@]2(O)CC(=O)O[C@@]23C[C@@H](Cl)[C@H](O)C[C@H]13; Condition met
C=CC[C@@H]1CC(=O)[C@@]2(O)CC=CC[C@H]12; Condition met
C=CC[C@@H]1C[C@]2(O)CC(O)O[C@@]23C[C@H]2O[C@H]2C[C@H]13 (some centres unmarked); Condition met
C=CC[C@@H]1C[C@]2(OC(C)=O)C[C@@H](OC(C)=O)O[C@@]23CC=CC[C@H]13; Condition met
CC(=O)O[C@@]12C[C@H]3CC=CC[C@@]1(O3)[C@@H]1CC=CC[C@@H]1C2; Condition met
C=CC[C@@H]1C[C@@]2(O)C[C@@H](CC=C)[C@H]3C[C@@H](O)CC[C@@]32O1; Condition not met

In the following, a different compound is considered.
Is inhibition at 50 µg/mL for `C=CC[C@@H]1C[C@]2(O)CCO[C@@]23C[C@@H](O)[C@H](Cl)C[C@H]13` at or above 10%?
Condition not met
